Values from PubChem BioAssay (Tox21)

# assay details: qHTS assay to test for compound auto fluorescence at 460 nm (blue) in HepG2 cell free culture (AID 720685)
# run parameters: Cell-free culture medium, blue autofluorescence 405/460 nm; series mostly up to 91.3 µM
The source made the active and inactive calls. Calls follow the shape of the dose curve; as a rule, active = well fitted curve in the direction sought with a large enough effect in the repeat runs; inconclusive = weak or mixed curves; inactive = flat fitted curve, though single readings scatter.
measurement name: fluorescence, % of fluorescent control

[
  {
    "compound": "CCC(=O)c1ccccc1",
    "measurement name": "fluorescence, % of fluorescent control",
    "recorded value": "inactive"
  },
  {
    "compound": "NC1=NC(=O)C(c2ccccc2)O1 (configuration not stated)",
    "measurement name": "fluorescence, % of fluorescent control",
    "recorded value": "inactive"
  },
  {
    "compound": "c1cc[c]([Hg][c]2ccccc2)cc1",
    "measurement name": "fluorescence, % of fluorescent control",
    "recorded value": "inactive"
  },
  {
    "compound": "CCCCN(CCCCO)N=O",
    "measurement name": "fluorescence, % of fluorescent control",
    "recorded value": "inactive"
  },
  {
    "compound": "CC(=O)Nc1cc([As](=O)(O)O)ccc1O",
    "measurement name": "fluorescence, % of fluorescent control",
    "recorded value": "inactive"
  },
  {
    "compound": "CCc1cc2c(s1)-n1c(C)nnc1CN=C2c1ccccc1Cl",
    "measurement name": "fluorescence, % of fluorescent control",
    "recorded value": "inactive"
  },
  {
    "compound": "Clc1cccc(N2CCNCC2)c1",
    "measurement name": "fluorescence, % of fluorescent control",
    "recorded value": "inactive"
  },
  {
    "compound": "CNC(=O)Oc1ccccc1C1OCCO1",
    "measurement name": "fluorescence, % of fluorescent control",
    "recorded value": "inactive"
  },
  {
    "compound": "CCOC(=O)NC(=S)Nc1ccccc1NC(=S)NC(=O)OCC",
    "measurement name": "fluorescence, % of fluorescent control",
    "recorded value": "inactive"
  },
  {
    "compound": "O=C(O)c1cccc(Cl)c1",
    "measurement name": "fluorescence, % of fluorescent control",
    "recorded value": "inactive"
  },
  {
    "compound": "CCOP(=O)(OCC)OP(=O)(OCC)OCC",
    "measurement name": "fluorescence, % of fluorescent control",
    "recorded value": "inactive"
  },
  {
    "compound": "CS(=O)(=O)c1cc(C(F)(F)F)ccc1C(=O)c1cnoc1C1CC1",
    "measurement name": "fluorescence, % of fluorescent control",
    "recorded value": "inactive"
  },
  {
    "compound": "O=[N+]([O-])c1cccc2cccnc12",
    "measurement name": "fluorescence, % of fluorescent control",
    "recorded value": "inactive"
  },
  {
    "compound": "ClCC(Cl)Cl",
    "measurement name": "fluorescence, % of fluorescent control",
    "recorded value": "inactive"
  },
  {
    "compound": "OC(c1ccc(F)cc1)(c1cncnc1)c1ccccc1Cl (configuration not stated)",
    "measurement name": "fluorescence, % of fluorescent control",
    "recorded value": "inactive"
  },
  {
    "compound": "O=C1OC(c2ccc(O)c(S(=O)(=O)O)c2)(c2ccc(O)c(S(=O)(=O)O)c2)c2c(Br)c(Br)c(Br)c(Br)c21",
    "measurement name": "fluorescence, % of fluorescent control",
    "recorded value": "inactive"
  },
  {
    "compound": "C[N+](=O)[O-]",
    "measurement name": "fluorescence, % of fluorescent control",
    "recorded value": "inactive"
  },
  {
    "compound": "N#CC(O)c1ccccc1 (configuration not stated)",
    "measurement name": "fluorescence, % of fluorescent control",
    "recorded value": "inactive"
  },
  {
    "compound": "C#CCN1C(=O)COc2cc(F)c(N3C(=O)C4=C(CCCC4)C3=O)cc21",
    "measurement name": "fluorescence, % of fluorescent control",
    "recorded value": "inactive"
  },
  {
    "compound": "CSc1nc(N=[N+]=[N-])nc(NC(C)C)n1",
    "measurement name": "fluorescence, % of fluorescent control",
    "recorded value": "inactive"
  },
  {
    "compound": "COc1cc(OC)nc(NC(=O)NS(=O)(=O)c2ncccc2OCC(F)(F)F)n1",
    "measurement name": "fluorescence, % of fluorescent control",
    "recorded value": "inactive"
  },
  {
    "compound": "CCC#N",
    "measurement name": "fluorescence, % of fluorescent control",
    "recorded value": "inactive"
  },
  {
    "compound": "CCCSP(=S)(OCC)Oc1ccc(Cl)cc1Cl (configuration not stated)",
    "measurement name": "fluorescence, % of fluorescent control",
    "recorded value": "inactive"
  },
  {
    "compound": "O=[N+]([O-])c1ccc(CBr)cc1",
    "measurement name": "fluorescence, % of fluorescent control",
    "recorded value": "inactive"
  },
  {
    "compound": "COc1cc2c(cc1OC)[C@@]13CCN4CC5=CCO[C@H]6CC(=O)N2[C@H]1[C@H]6[C@H]5C[C@H]43",
    "measurement name": "fluorescence, % of fluorescent control",
    "recorded value": "inactive"
  },
  {
    "compound": "C[C@]12CC[C@H]3[C@@H](CC=C4C[C@@H](O)CC[C@@]43C)[C@@H]1CC[C@@H]2O",
    "measurement name": "fluorescence, % of fluorescent control",
    "recorded value": "inactive"
  },
  {
    "compound": "Cc1ncc2n1-c1ccc(Cl)cc1C(c1ccccc1F)=NC2",
    "measurement name": "fluorescence, % of fluorescent control",
    "recorded value": "inactive"
  }
]
